# system: T1, MutS (Escherichia coli, UniProt P23909 1-853)
# T1 sequence: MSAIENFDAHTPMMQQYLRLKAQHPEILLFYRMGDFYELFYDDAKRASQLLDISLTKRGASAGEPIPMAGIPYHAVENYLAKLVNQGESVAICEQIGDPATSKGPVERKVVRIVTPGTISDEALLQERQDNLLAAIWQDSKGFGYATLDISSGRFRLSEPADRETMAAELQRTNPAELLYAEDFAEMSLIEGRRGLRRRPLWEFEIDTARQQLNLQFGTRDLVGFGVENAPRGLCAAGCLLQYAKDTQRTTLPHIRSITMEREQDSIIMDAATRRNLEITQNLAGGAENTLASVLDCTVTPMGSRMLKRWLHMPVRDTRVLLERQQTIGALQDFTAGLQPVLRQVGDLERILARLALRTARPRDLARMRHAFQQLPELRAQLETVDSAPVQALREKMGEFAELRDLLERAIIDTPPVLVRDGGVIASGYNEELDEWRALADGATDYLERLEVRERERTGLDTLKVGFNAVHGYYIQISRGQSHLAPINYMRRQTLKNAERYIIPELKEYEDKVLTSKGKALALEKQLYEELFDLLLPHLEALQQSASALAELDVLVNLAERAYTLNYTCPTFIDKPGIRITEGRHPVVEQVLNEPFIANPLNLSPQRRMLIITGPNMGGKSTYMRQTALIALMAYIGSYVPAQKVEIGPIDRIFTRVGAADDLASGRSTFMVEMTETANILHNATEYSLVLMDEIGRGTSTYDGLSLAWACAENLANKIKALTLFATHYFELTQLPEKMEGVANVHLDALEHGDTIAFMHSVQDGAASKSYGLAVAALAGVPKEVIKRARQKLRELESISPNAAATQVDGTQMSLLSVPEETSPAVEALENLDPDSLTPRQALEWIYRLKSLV
# method_description: EMSA (Scatchard); 1 mM ADP, 5 mM Mg2+; EMSA: 20 mM HEPES pH 8.0, 125 mM KCl, 1 mM ADP, 5 mM MgCl2, 1 mg/ml BSA, 9% glycerol, 37 C 20 min (gel at 4 C); fluorescence: 25 mM Tris-HCl pH 7.5, 125 mM KCl, 5 mM MgCl2, 1 mM ADP, 20 C
# measurement_context: protein: recombinant; tags: His-tag (Ni-NTA purified); chain copies: 2; label: 5'-32P; blunt
reported_property: Kd (nM)
Numbers only, in nM.

Q: // returns reported Kd for input duplex I (G/C) (dsDNA) DNA 1: CAAGCCTATGCCCTCAGCACCCAGGGTGCC DNA 2: GGCACCCTGGGTGCTGAGGGCATAGGCTTG
Result: 32
